# assayedTarget: T1, human CD71 extracellular domain (human, UniProt P02786 89-760, biotinylated)
# T1 construct: also called hCD71; CD71-ECD
# T1 sequence (P02786 89-760): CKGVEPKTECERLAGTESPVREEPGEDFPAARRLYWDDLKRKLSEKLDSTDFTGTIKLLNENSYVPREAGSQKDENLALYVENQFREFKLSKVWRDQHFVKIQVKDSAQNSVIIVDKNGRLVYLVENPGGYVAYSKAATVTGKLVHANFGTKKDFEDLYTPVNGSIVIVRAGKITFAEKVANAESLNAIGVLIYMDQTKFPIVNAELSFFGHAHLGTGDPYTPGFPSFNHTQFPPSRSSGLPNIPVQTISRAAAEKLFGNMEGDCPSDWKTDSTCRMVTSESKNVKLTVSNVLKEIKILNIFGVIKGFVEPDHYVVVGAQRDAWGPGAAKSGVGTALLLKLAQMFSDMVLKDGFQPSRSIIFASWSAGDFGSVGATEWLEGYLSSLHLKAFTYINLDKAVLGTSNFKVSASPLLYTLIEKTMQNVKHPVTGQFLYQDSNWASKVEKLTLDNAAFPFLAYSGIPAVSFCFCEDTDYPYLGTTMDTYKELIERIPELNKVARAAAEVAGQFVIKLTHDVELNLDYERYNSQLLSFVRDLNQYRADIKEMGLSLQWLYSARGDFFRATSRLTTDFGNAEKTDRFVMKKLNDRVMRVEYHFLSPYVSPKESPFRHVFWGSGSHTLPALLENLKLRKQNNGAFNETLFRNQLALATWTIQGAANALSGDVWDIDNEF
# experimentalProtocol: primary ELISA; note: test concentration or dose not given here
RLU values for the binders below.
Record the value in RLU, omitting the unit from your answer.

Worked cases, RLU given:
CD71-binding FN3 domain of SEQ ID NO: 512 (designed binder) MLPAPKNLVVSRVTEDSARLSWTAPDAAFDSFFIGYLEPQPPGEAIDLWVPGSERSYDLTGLKPGTEYNVTIQGVKGGFPSDPLDAHFTT	2.06e+06
CD71-binding FN3 domain of SEQ ID NO: 545 (designed binder) MLPAPKNLVVSRVTEDSARLSWTAPDAAFDSFFIGYLEPQPPGEAISLVVPGSERSYDLTGLKPGTEYNVTIQGVKGGFPSNPLIATFTT	4.22e+06
CD71-binding FN3 domain of SEQ ID NO: 498 (designed binder) MLPAPKNLVVSRVTEDSARLSWTAPDAAFDSFFIGYLEPQPPGEAIILWVPGSERSYDLTGLKPGTEYNVTIQGVKGGFPSIPLIAVFTT	5.7e+06

Consider the record given below.
So, CD71-binding FN3 domain of SEQ ID NO: 526 (designed binder) MLPAPKNLVVSRVTEDSARLSWTAPDAAFDSFFIGYLEPQPPGEAISLIVPGSERSYDLTGLKPGTEYNVTIQGVKGGFPSDPLIAIFTT ? Its RLU was 3.7e+06
